Source of measurements: ChEMBL document CHEMBL1127552

- Test system: UniProt:P29473
- Sequence (P29473 whole entry): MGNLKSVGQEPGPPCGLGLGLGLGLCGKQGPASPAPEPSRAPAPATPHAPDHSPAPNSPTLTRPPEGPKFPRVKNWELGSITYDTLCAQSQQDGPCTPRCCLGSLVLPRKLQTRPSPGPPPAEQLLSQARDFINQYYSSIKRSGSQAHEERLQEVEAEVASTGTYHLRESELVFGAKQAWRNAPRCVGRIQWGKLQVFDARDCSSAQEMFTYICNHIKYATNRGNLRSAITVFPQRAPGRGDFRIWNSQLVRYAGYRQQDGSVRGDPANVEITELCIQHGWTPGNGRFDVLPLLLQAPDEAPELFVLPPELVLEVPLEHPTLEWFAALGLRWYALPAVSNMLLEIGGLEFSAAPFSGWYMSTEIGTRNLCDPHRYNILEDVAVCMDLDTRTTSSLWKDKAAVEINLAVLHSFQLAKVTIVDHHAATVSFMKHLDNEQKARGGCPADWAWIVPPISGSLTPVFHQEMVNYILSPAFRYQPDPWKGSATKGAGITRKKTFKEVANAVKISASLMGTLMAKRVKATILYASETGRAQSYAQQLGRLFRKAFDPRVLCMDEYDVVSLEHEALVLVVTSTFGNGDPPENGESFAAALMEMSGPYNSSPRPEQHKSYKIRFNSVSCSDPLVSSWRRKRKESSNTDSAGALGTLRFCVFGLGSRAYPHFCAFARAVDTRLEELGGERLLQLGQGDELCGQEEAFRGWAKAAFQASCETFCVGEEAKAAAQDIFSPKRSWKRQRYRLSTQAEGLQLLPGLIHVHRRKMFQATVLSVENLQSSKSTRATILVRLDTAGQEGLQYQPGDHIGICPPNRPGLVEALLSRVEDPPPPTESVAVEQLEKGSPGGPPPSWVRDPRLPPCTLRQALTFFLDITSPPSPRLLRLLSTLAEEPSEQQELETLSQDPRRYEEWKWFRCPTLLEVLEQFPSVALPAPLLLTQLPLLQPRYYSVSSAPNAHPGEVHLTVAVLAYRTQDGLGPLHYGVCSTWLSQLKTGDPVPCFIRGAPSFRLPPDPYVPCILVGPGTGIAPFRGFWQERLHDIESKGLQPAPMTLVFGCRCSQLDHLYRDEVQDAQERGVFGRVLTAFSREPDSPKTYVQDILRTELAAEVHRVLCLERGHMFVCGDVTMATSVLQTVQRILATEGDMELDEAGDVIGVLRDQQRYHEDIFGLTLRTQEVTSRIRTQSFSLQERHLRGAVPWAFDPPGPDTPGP
- Method summary: Compound was tested for its inhibitory activity against endothelial NO2- synthesis
Readout label: pIC50
Numbers only, as −log10 of the molar value.

Q: Return reported pIC50; argument: `COC(=O)[C@@H](N)CCCNC(=N)N[N+](=O)[O-]`
A: 4.00

====

- Test system: Nitric oxide synthase, inducible (Mus musculus, UniProt P29477)
- Sequence (P29477 whole entry): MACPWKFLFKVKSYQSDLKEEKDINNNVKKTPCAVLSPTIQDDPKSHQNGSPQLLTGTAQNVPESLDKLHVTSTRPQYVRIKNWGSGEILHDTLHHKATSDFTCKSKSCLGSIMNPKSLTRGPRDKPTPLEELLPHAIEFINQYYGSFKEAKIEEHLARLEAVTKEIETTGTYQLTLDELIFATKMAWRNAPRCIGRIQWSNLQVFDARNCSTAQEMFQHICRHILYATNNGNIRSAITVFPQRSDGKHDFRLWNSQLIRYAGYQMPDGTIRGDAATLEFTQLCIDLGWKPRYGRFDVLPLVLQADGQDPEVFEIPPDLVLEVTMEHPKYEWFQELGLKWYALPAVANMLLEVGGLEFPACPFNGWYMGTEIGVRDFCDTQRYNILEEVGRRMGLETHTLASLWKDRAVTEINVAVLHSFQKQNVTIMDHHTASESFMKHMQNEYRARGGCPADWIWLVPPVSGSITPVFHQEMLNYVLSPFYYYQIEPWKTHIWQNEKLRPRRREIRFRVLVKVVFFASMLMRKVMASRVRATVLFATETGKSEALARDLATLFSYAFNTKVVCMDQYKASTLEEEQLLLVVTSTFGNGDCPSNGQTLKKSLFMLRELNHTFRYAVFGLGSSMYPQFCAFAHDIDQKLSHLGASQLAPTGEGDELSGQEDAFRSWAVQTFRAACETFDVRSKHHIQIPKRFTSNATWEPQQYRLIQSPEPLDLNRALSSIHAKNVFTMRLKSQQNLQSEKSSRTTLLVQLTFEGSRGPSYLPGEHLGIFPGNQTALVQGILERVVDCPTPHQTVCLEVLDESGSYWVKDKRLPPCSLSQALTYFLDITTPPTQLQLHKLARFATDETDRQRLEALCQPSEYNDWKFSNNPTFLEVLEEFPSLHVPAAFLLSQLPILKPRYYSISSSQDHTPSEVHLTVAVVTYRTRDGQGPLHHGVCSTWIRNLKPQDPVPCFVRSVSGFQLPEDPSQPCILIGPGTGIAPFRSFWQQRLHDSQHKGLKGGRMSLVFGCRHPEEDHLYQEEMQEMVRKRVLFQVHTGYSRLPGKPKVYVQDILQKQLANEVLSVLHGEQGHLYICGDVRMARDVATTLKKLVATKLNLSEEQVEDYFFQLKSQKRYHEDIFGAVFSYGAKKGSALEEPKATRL
Readout label: IC50
Could you kindly put the unit after your number?

Q: Return reported IC50; argument: CNC(N)NCCCC(N)C(=O)O (stereo unspecified)
A: 60 µM
